src = paper PMC6476959

Target Or System: Pdr5 (Saccharomyces cerevisiae)
Construct: effect on (A) the transport activity of Pdr5 WT and (B) their effect on the ATPase activity
Sequence (P33302 whole entry): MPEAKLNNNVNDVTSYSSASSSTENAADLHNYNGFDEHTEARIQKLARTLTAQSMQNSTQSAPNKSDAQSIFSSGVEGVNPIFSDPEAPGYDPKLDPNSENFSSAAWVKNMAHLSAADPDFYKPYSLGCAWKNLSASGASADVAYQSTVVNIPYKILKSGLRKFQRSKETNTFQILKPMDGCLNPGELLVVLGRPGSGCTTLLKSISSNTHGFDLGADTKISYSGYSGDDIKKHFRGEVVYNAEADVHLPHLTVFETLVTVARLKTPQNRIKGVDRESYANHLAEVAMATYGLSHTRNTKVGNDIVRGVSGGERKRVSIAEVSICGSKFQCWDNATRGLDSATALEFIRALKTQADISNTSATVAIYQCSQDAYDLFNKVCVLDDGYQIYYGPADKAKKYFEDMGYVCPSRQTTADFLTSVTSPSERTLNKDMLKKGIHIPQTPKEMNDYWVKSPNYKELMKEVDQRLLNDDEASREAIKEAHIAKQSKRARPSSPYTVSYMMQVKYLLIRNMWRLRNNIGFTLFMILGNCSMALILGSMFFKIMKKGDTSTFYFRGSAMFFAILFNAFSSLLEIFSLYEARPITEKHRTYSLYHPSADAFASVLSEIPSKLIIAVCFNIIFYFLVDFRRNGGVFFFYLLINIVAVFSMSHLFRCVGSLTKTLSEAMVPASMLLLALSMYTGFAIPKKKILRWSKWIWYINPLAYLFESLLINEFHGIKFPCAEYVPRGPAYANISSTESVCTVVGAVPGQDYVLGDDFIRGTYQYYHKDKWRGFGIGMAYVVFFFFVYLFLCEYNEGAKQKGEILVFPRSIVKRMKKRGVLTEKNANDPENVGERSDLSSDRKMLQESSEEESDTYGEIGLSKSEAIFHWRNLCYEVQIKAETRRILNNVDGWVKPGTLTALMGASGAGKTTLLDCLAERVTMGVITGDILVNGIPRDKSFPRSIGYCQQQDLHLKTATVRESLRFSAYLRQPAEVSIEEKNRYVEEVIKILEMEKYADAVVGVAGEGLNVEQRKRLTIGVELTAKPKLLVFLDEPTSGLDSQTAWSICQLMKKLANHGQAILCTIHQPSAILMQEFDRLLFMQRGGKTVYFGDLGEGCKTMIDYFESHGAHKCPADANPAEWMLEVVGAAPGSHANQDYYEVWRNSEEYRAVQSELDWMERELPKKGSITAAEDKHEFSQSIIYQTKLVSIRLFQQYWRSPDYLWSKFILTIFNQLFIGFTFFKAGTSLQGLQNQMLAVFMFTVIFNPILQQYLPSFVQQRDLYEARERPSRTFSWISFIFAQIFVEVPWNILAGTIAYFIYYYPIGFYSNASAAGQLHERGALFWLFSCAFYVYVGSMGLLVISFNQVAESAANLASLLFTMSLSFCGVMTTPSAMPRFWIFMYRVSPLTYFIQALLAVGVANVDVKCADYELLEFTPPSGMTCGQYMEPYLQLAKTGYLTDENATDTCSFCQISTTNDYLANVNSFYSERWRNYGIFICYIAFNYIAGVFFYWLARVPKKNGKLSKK
Assay Protocol: Pdr5 transport assay (R6G) in plasma membrane preparations
pIC50: −log10 of the molar value.
Property Name: pIC50

Compound	Target Or System	Property Name	Result Value
CCCCCC1Cc2cc(OC)cc(OC)c2C(=O)O1 (stereo not shown) [Compound 16a]	Pdr5 (Saccharomyces cerevisiae)	pIC50	4.84
COc1cc(O)c2c(c1)C[C@@H](CCO[Si](C)(C)C(C)(C)C)OC2=O [(S)-19]	Pdr5 (Saccharomyces cerevisiae)	pIC50	5.28
COc1cc(O)c2c(c1)C[C@H](CCO[Si](C)(C)C(C)(C)C)OC2=O [(R)-19]	Pdr5 (Saccharomyces cerevisiae)	pIC50	4.59
CCCCCC1Cc2cc(OC)cc(O)c2C(=O)O1 (stereo not shown) [Compound 16]	Pdr5 (Saccharomyces cerevisiae)	pIC50	4.82

----------
Target Or System: BCRP (Homo sapiens, UniProt Q9UNQ0)
Construct: endogenous in cells; host or cells: MCF-7/MX human breast adenocarcinoma cells (mitoxantrone-selected)
Sequence (Q9UNQ0 whole entry): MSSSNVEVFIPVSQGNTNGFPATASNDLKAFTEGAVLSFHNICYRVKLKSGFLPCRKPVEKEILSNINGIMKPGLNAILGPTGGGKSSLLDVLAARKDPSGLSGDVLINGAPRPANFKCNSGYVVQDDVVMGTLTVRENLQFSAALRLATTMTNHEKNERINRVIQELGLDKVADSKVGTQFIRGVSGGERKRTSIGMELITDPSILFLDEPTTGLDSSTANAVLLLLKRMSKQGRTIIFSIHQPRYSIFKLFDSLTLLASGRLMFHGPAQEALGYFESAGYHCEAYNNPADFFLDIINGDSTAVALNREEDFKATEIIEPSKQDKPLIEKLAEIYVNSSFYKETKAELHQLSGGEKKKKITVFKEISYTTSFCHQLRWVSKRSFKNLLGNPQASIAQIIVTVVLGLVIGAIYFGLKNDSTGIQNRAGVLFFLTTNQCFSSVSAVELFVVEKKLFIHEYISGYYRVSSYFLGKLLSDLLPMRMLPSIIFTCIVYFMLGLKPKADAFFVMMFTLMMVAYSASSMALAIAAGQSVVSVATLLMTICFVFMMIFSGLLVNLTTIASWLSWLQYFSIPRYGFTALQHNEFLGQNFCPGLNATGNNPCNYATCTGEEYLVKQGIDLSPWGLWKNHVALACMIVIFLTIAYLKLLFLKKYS
Assay Protocol: BCRP transport assay (Hoechst 33342) in MCF-7/MX cells
Format: cell-based
Property Name: Inhibition of BCRP (in words)

Compound	Target Or System	Result Value
COc1cc(O)c2c(c1)CCOC2=O [Compound 14]	BCRP (Homo sapiens, UniProt Q9UNQ0)	did not inhibit BCRP
COc1cc2c(c(OC)c1)C(=O)OCC2 [Compound 14a]	BCRP (Homo sapiens, UniProt Q9UNQ0)	did not inhibit BCRP

----------
Target Or System: BCRP (Homo sapiens, UniProt Q9UNQ0)
Construct: endogenous in cells; host or cells: MCF-7/MX human breast adenocarcinoma cells (mitoxantrone-selected)
Assay Protocol: BCRP transport assay (Hoechst 33342) in MCF-7/MX cells
Assay type: cell-based
Setup Conditions: human, BCRP-expressing MCF-7/MX cells, probe Hoechst 33342, 50 μM; normalized to 1 μM Ko143 (100%) and DMSO (0%); read-out: Relative inhibition of BCRP
Property Name: inhibition at 3 h, 50 μM (%)

Compound	Target Or System	Property Name	Unit String	Result Value
CCCCCC1Cc2cc(OC)cc(O)c2C(=O)O1 (stereo not shown)	BCRP (Homo sapiens, UniProt Q9UNQ0)	inhibition at 3 h, 50 μM	%	89.1
